target: CIB1 and αIIb interaction (GST-CIB1 : F-αIIb peptide) (Homo sapiens); construct: made in house; host or cells: BL-21 plus RIL cells (E. coli); experiment: FP assay, 384-well format (screen); format: binding; parameters: concentration or dose not given beside the values; conditions: F-αIIb peptide
Sequence (Q99828 whole entry): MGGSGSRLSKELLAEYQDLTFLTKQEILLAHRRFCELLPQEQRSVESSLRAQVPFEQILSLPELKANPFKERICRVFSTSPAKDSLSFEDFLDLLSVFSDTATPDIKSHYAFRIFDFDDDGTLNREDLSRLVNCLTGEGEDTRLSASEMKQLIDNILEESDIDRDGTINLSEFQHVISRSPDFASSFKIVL
Property Label: 384-well SCREEN Efficacy (%)

| Molecule | Experimental System | Readout Value |
| --- | --- | --- |
| O=C(O)c1cccc(CN2C(=O)/C(=C(\c3ccccc3)c3ccc(Cl)cc3)c3ccccc32)c1 | CIB1 and αIIb interaction (GST-CIB1 : F-αIIb peptide) (Homo sapiens) | 70 |
| CCc1ccc(S(=O)(=O)Nc2cnccc2C(=O)Nc2nc(-c3ccccc3)cs2)cc1.O=C(O)C(F)(F)F | CIB1 and αIIb interaction (GST-CIB1 : F-αIIb peptide) (Homo sapiens) | 40 |
| Oc1c(Cl)cc(Cl)c(Cl)c1Cc1c(O)c(Cl)cc(Cl)c1Cl | CIB1 and αIIb interaction (GST-CIB1 : F-αIIb peptide) (Homo sapiens) | 55 |
| CN(C)C(=S)SSC(=S)N(C)C [NCGC00091563-02, thiram, reference compound] | CIB1 and αIIb interaction (GST-CIB1 : F-αIIb peptide) (Homo sapiens) | 78 |
